Target under test: human Kv7.2+3 (Homo sapiens, UniProt O43525+O43526)
Construct: expressed in transfected cells; host or cells: HEK293
Assay summary: FLIPR-based characterization of Kv7.2+3 modulators (thallium influx, BTC-AM)
Format: cell-based
Experimental context: maximal response relative to the reference (retigabine) response; HEK293 cells over-expressing human Kv7.2+3; read-out: Efficacy
Readout label: Emax (%)
Answer in %, number only, no unit symbol.

Worked set:
>  <Smiles input>
O=C(Cc1cc(F)cc(F)c1)Nc1ccc(NCc2ccc(F)cc2)nc1N1CCOCC1

>  <Target under test>
human Kv7.2+3 (Homo sapiens, UniProt O43525+O43526)

>  <Value>
100

$$$$
>  <Smiles input>
O=C(Cc1cccc(F)c1)Nc1ccc(NCc2ccc(F)cc2)nc1N1CCOCC1

>  <Target under test>
human Kv7.2+3 (Homo sapiens, UniProt O43525+O43526)

>  <Value>
93

$$$$

Asked: State its Emax for this molecule: O=C(Cc1ccc(Cl)cc1)Nc1ccc(NCc2ccc(F)cc2)nc1N1CCOCC1
Given back: 88

Asked: Identify Emax associated with the molecule O=C(Cc1ccccc1F)Nc1ccc(NCc2ccc(F)cc2)nc1N1CCOCC1
Given back: 86

Asked: Using known records, supply Emax for O=C(Cc1ccc(Cl)nc1)Nc1ccc(NCc2ccc(F)cc2)nc1N1CCOCC1
Given back: 80

Asked: Please report Emax for the following molecule: Cc1ccccc1C(=O)Nc1ccc(NCc2ccc(F)cc2)nc1N1CCOCC1
Given back: 52

Asked: Quote Emax reported for O=C(CSc1ccc(F)cc1)Nc1ccc(NCc2ccc(F)cc2)nc1N1CCOCC1 please.
Given back: 87

Asked: Assign Emax to the following record: O=C(COc1cccc(F)c1)Nc1ccc(NCc2ccc(F)cc2)nc1N1CCOCC1
Given back: 86

Numbers sourced from patent US20110312962A1.
